- Assay comment: Biodistribution of the 99mTc(N) heterocomplexes in rats (organ uptake, heart accumulation, heart/lung and heart/liver ratios)
- Type: in vivo, female Sprague-Dawley rats
- Conditions: 60 min post injection
Measurement type: Biodistribution in rats: Kidneys (% dose/g)

CCOCCN1CC[P](CCCOC)(CCCOC)[99Tc+]2(#[N])([S]C(N(CCOCC)C(C)C)=[S]2)[P](CCCOC)(CCCOC)CC1 [[^99mTc(N) (PNP5) (ISOET)]^+]	5.12
CCOCCN1CC[P](CCCOC)(CCCOC)[99Tc+]2(#[N])([S]C(N(CCOCC)CCOCC)=[S]2)[P](CCCOC)(CCCOC)CC1 [[^99mTc(N) (PNP5) (DBODC)]^+]	5.73

---

- Assay comment: Biodistribution of the 99mTc(N) heterocomplexes in rats (organ uptake, heart accumulation, heart/lung and heart/liver ratios)
- Format: in vivo, female Sprague-Dawley rats
- Conditions: 20 min post injection
Measurement type: Biodistribution in rats: Liver (% ID/g)

(P) COCCC[P]1(CCCOC)CCN(CCOC)CC[P](CCCOC)(CCCOC)[99Tc+]12(#[N])[S]C(N(CCOC)CCOC)=[S]2 [[^99mTc(N) (PNP3) (DPODC)]^+]
(Q) CCOCCN(CCOCC)C1=[S][99Tc+]2(#[N])([S]1)[P](CCCOC)(CCCOC)CCN(CCOC)CC[P]2(CCCOC)CCCOC [[^99mTc(N) (PNP3) (DBODC)]^+]
Parameter metric = Biodistribution in rats: Liver. Return the lower-valued option from P and Q . Identify your selection by its label.
Q

---

- Assay comment: Biodistribution of the 99mTc(N) heterocomplexes in rats (organ uptake, heart accumulation, heart/lung and heart/liver ratios)
- Type: in vivo, female Sprague-Dawley rats
- Conditions: 20 min post injection
Measurement type: Biodistribution in rats: Kidneys (% ID/g)

CCOCCN(CCOCC)C1=[S][99Tc+]2(#[N])([S]1)[P](CCCOC)(CCCOC)CCN(CCOC)CC[P]2(CCCOC)CCCOC [[^99mTc(N) (PNP3) (DBODC)]^+]	6.12
COCCC[P]1(CCCOC)CCN(CCOC)CC[P](CCCOC)(CCCOC)[99Tc+]12(#[N])[S]C(N(CCOC)CCOC)=[S]2 [[^99mTc(N) (PNP3) (DPODC)]^+]	5.63

---

- Assay comment: Biodistribution of the 99mTc(N) heterocomplexes in rats (organ uptake, heart accumulation, heart/lung and heart/liver ratios)
- Assay type: in vivo, female Sprague-Dawley rats
- Conditions: 30 min post injection
Measurement type: Biodistribution in rats: Brain (% dose/g)

CCOCCN1CC[P](CCCOC)(CCCOC)[99Tc+]2(#[N])([S]C(N(CCOCC)CCOCC)=[S]2)[P](CCCOC)(CCCOC)CC1 [[^99mTc(N) (PNP5) (DBODC)]^+]	0.01
CCOCCN1CC[P](CCCOC)(CCCOC)[99Tc+]2(#[N])([S]C(N(CCOCC)C(C)C)=[S]2)[P](CCCOC)(CCCOC)CC1 [[^99mTc(N) (PNP5) (ISOET)]^+]	0.01

---

- Assay comment: Biodistribution of the 99mTc(N) heterocomplexes in rats (organ uptake, heart accumulation, heart/lung and heart/liver ratios)
- Type: in vivo, female Sprague-Dawley rats
- Conditions: rats, 20 min
Measurement type: Heart accumulation (% ID/g)

(P) CCOCCN(CCOCC)C1=[S][99Tc+]2(#[N])([S]1)[P](CCCOC)(CCCOC)CCN(CCOC)CC[P]2(CCCOC)CCCOC [[^99m−Tc(N) (PNP3) (DBODC)^+]]
(Q) CCOCCC[P]1(CCCOCC)CCN(CCOCC)CC[P](CCCOCC)(CCCOCC)[99Tc+]12(#[N])[S]C(N(CCOCC)CCOCC)=[S]2 [[^99m−Tc(N) (PNP6) (DBODC)^+]]
Exercise: compare P and Q ; which one has the greater Heart accumulation? Identify your selection by its label.
P

---

- Assay comment: Biodistribution of the 99mTc(N) heterocomplexes in rats (organ uptake, heart accumulation, heart/lung and heart/liver ratios)
- Type: in vivo, female Sprague-Dawley rats
- Conditions: 60 min post injection
Measurement type: Biodistribution in rats: Adrenal glands (% ID/g)

(P) COCCC[P]1(CCCOC)CCN(CCOC)CC[P](CCCOC)(CCCOC)[99Tc+]12(#[N])[S]C(N(CCOC)CCOC)=[S]2 [[^99mTc(N) (PNP3) (DPODC)]^+]
(Q) CCOCCN(CCOCC)C1=[S][99Tc+]2(#[N])([S]1)[P](CCCOC)(CCCOC)CCN(CCOC)CC[P]2(CCCOC)CCCOC [[^99mTc(N) (PNP3) (DBODC)]^+]
Parameter metric = Biodistribution in rats: Adrenal glands. Return the lower-valued option from P and Q . Identify your selection by its label.
P
(P: 1.17 % ID/g, Q: 2.17 % ID/g)

---

- Assay comment: Biodistribution of the 99mTc(N) heterocomplexes in rats (organ uptake, heart accumulation, heart/lung and heart/liver ratios)
- Format: in vivo, female Sprague-Dawley rats
- Conditions: 60 min post injection
Measurement type: Biodistribution in rats: Muscle (% ID/g)

(A) COCCC[P]1(CCCOC)CCN(CCOC)CC[P](CCCOC)(CCCOC)[99Tc+]12(#[N])[S]C(N(CCOC)CCOC)=[S]2 [[^99mTc(N) (PNP3) (DPODC)]^+]
(B) CCOCCN(CCOCC)C1=[S][99Tc+]2(#[N])([S]1)[P](CCCOC)(CCCOC)CCN(CCOC)CC[P]2(CCCOC)CCCOC [[^99mTc(N) (PNP3) (DBODC)]^+]
Parameter metric = Biodistribution in rats: Muscle. Return the lower-valued option from A and B . Identify your selection by its label.
B

---

- Assay comment: Biodistribution of the 99mTc(N) heterocomplexes in rats (organ uptake, heart accumulation, heart/lung and heart/liver ratios)
- Format: in vivo, female Sprague-Dawley rats
- Conditions: 20 min post injection
Measurement type: Biodistribution in rats: Heart (% dose/g)

CCOCCN1CC[P](CCCOC)(CCCOC)[99Tc+]2(#[N])([S]C(N(CCOCC)CCOCC)=[S]2)[P](CCCOC)(CCCOC)CC1 [[^99mTc(N) (PNP5) (DBODC)]^+]	3.63
CCOCCN1CC[P](CCCOC)(CCCOC)[99Tc+]2(#[N])([S]C(N(CCOCC)C(C)C)=[S]2)[P](CCCOC)(CCCOC)CC1 [[^99mTc(N) (PNP5) (ISOET)]^+]	2.86

---

- Assay comment: Biodistribution of the 99mTc(N) heterocomplexes in rats (organ uptake, heart accumulation, heart/lung and heart/liver ratios)
- Type: in vivo, female Sprague-Dawley rats
- Conditions: 10 min post injection
Measurement type: Biodistribution in rats: Spleen (% dose/g)

CCOCCN1CC[P](CCCOC)(CCCOC)[99Tc+]2(#[N])([S]C(N(CCOCC)C(C)C)=[S]2)[P](CCCOC)(CCCOC)CC1 [[^99mTc(N) (PNP5) (ISOET)]^+]	1.28
CCOCCN1CC[P](CCCOC)(CCCOC)[99Tc+]2(#[N])([S]C(N(CCOCC)CCOCC)=[S]2)[P](CCCOC)(CCCOC)CC1 [[^99mTc(N) (PNP5) (DBODC)]^+]	1.79

---

- Assay comment: Biodistribution of the 99mTc(N) heterocomplexes in rats (organ uptake, heart accumulation, heart/lung and heart/liver ratios)
- Format: in vivo, female Sprague-Dawley rats
- Conditions: rats, 0 min
Measurement type: Heart/lung ratio in biodistribution

CCOCCC[P]1(CCCOCC)CCN(CCOCC)CC[P](CCCOCC)(CCCOCC)[99Tc+]12(#[N])[S]C(N(CCOCC)CCOCC)=[S]2 [[^99mTc(N) (PNP6) (DBODC)^+]]	0.58
CCOCCN(CCOCC)C1=[S][99Tc+]2(#[N])([S]1)[P](CCCOC)(CCCOC)CCN(CCOC)CC[P]2(CCCOC)CCCOC [[^99m−Tc(N) (PNP3) (DBODC)^+]]	2.32
CCOCCN1CC[P](CCCOC)(CCCOC)[99Tc+]2(#[N])([S]C(N(CCOCC)CCOCC)=[S]2)[P](CCCOC)(CCCOC)CC1 [[^99mTc(N) (PNP5) (DBODC)^+]]	0.76

(I) COCCC[P]1(CCCOC)CCN(CCOC)CC[P](CCCOC)(CCCOC)[99Tc+]12(#[N])[S]C(N(CCOC)CCOC)=[S]2 [[^99m−Tc(N) (PNP3) (DPODC)^+]]
(II) CCOCCN1CC[P](CCCOC)(CCCOC)[99Tc+]2(#[N])([S]C(N(CCOCC)C(C)C)=[S]2)[P](CCCOC)(CCCOC)CC1 [[^99mTc(N) (PNP5) (ISOET)^+]]
Exercise: compare I and II ; which one has the greater Heart/lung ratio in biodistribution? Identify your selection by its label.
I

---

- Assay comment: Biodistribution of the 99mTc(N) heterocomplexes in rats (organ uptake, heart accumulation, heart/lung and heart/liver ratios)
- Format: in vivo, female Sprague-Dawley rats
- Conditions: 2 min post injection
Measurement type: Biodistribution in rats: Lungs (% ID/g)

(1) CCOCCN(CCOCC)C1=[S][99Tc+]2(#[N])([S]1)[P](CCCOC)(CCCOC)CCN(CCOC)CC[P]2(CCCOC)CCCOC [[^99mTc(N) (PNP3) (DBODC)]^+]
(2) COCCC[P]1(CCCOC)CCN(CCOC)CC[P](CCCOC)(CCCOC)[99Tc+]12(#[N])[S]C(N(CCOC)CCOC)=[S]2 [[^99mTc(N) (PNP3) (DPODC)]^+]
Parameter metric = Biodistribution in rats: Lungs. Return the lower-valued option from 1 and 2 . Identify your selection by its label.
2
(2: 0.65 % ID/g, 1: 1.01 % ID/g)
